B1: Ribonuclease HI, P0A7Y4 (parent)
chain: MLKQVEIFTDGSCLGNPGPGGYGAILRYRGREKTFSAGYTRTTNNRMELMAAIVALEALKEHCEVILSTDSQYVRQGITQWIHNWKKRGWKTADKKPVKNVDLWQRLDAALGQHQIKWEWVKGHAGHPENERCDELARAAAMNPTLEDTGYQVEV

Variants of: B1
condition_summary: Escherichia coli (strain K12); pH 5.5; 49.8 °C; Thermal; CD; Sodium acetate 20 mM; reversible: yes; structure 2RN2; whole UniProt chain shown
Property: ddG of mutation (higher = less stable); scope: individual variants
property_label: ddG of mutation (higher = less stable) (kcal/mol)

• K95A = -0.1
• D94E = 0.4
• K95G = -1.9
• K91R = 0
• K95N = -0.9
